Assay: yeast display, Sf9 membrane polyspecificity reagent, FACS + sequencing; frameworks hold sequencing errors
measurement label: polyreactivity (PSR sort gate)

Example cases with answers are listed next.
Task item: Complete the entry with polyreactivity (PSR sort gate) for QVQLVESGVGLVQAGGSLRLSCAASGRIFRRYVMGWYRQAPGKEREFVAAITSRGGRTYYADSVKGRFTISRDNAKNTVYLQMNSLKPEDTAVYYCAARYSRSMDYWGQGTQVTVSS
Reply: high polyreactivity

Task item: Retrieve polyreactivity (PSR sort gate) measured for QVQLVESGGGLVQAGGSLRLSCAASGRTFYAYGMGWYRQAPGKERELVARISSSTGRTYYADSVKGRFTISRDNAKNTVYLQMNSLKPEDTAVYYCAALFYGYRGGGYGGPAAGDYWGQGTQVTVSS and print it.
Reply: high polyreactivity

Task item: State its polyreactivity (PSR sort gate): QVQLVESGGGLVQAGGSLRLSCAASGSIFRPNAMGWYRQAPGKERELVAAITWSGDSTYYADSVKGRFTISRDNAKNTVYLQMNSLKPEDTADYYCAADFTYQGSSANDYWGQGTQVTVSS
Reply: low polyreactivity

Task item: Indicate the recorded polyreactivity (PSR sort gate) value for this sequence: QVQLVESGGGLVQAGGSLRLSCADSGFILWYNAMGWYRQAPGKERELVARIDVRGGSTYYADSVKGRFTISRDNAKNTVYLQMNSLKPEDTAVYYCARKRQGPASRARYDYWGQGTQVTVSS
Reply: low polyreactivity

***
Task item: Answer with reported polyreactivity (PSR sort gate) of QVQLVESGGGLVQAGGSLRLSCAASGSTFAVNAMGWYRQAPGKERELVAAITGSGGSTYYADSVKGRFTISRDNAKNTVYLQMNSLKPEDTAVYYCAAYRRYGYYYWGQGTQVTVSS
Reply: low polyreactivity

Task item: Note down polyreactivity (PSR sort gate) recorded for QVQLVESGGGLVQAGGSLRLSCAASGSTFYSNAMGWYRQAPGKERELVAGISGSGGSTYYADSVKGRFTISRDNAKNTVYLQMNSLKPEDTAVYYCNARKTRSYFRFDSWGQGTQVTVSS
Reply: low polyreactivity

Task item: Please supply the value of reported polyreactivity (PSR sort gate) for the item QVQLVESGGGLVQAGGSLRLSCAASGSIFPPNAMGWSRQAPGKERELVAAISFSGGTSTYYADSVKGRFTISRDNAKNTVYLQMNSLKPEDTAVYYCAARKTTRRYHYDYWGQGTQVTVSS
Reply: high polyreactivity

Task item: Indicate the recorded polyreactivity (PSR sort gate) value for this sequence: QVQQQESGGGLVQAGGSLRLSCAASGTIFQLTVMGRYRQAPGQERELVASIDYGGNTNYADSVNGRFTISRDNAKNTVYLQMNSLKPEDTAVYYCAASSDSWTTHPYWGQGTQVTVSS
Reply: low polyreactivity

Task item: Retrieve polyreactivity (PSR sort gate) measured for QDQLVESGGGLVQAGGSLRLSCAASGFILKYYAMGWYRQAPGKEREFVAAITVSGGSTYYADSVKGRFTISRDNAKNTVYLQMNSLKPVDTAVYYCNADYPRGGAGLPDYWGQGTQVTVSS and print it.
Reply: low polyreactivity

Task item: Please give measured polyreactivity (PSR sort gate) of the following entry: QVQLVESGGGLVQAGGSLRLSCAASGSIFLPNAMGWYRQAPGKERELVAVITGGGSTKYADSVKGRFTISRDNAKNTVYLQMNSLKPEDTAVYYCNAQSPVDPSCDYWGRGTQVTVSS
Reply: low polyreactivity

Task item: Quick one: give measured polyreactivity (PSR sort gate) for QVHLQESGSGLVQAGGSLRLSCAASGAIFPAYLMGWYRQAPGKERELVAGSSYGSITYCADSVKGRFNISRDNAKNTVYLQMNSLKPEDTAVYYCAVLRPGGDEYYYWGQGTKVTVSS
Reply: low polyreactivity
